Recorded pIC50 for the following compounds
- subjectOfTest: intracellular GCN2 (phosphorylation of the GCN2 substrate eIF2α) (Homo sapiens)
- methodDescription: GCN2 cellular inhibition assay (AlphaScreen SureFire P-eIF2α Ser51, borrelidin-treated U2OS cells)
- Type: cell-based
- measurementParameters: compounds of Formula IV; biomarker assay, phosphorylated eIF2α Ser51 in borrelidin-treated U2OS cells
pIC50: −log10 of the molar value.

Study these solved cases before continuing.
C=Cc1cn2c(-c3nccc(N4CCN(C(C)=O)CC4)n3)cnc2cn1
< 5.30
C[C@H]1[C@@H](c2cn[nH]c2)NCCN1c1ccnc(-c2cnc3cnc(Br)cn23)n1 (racemic)
> 6.30
Fc1n[nH]cc1C1CCN(c2ccnc(-c3cnc4cnc(C(F)(F)F)cn34)n2)C1 (single isomer, unassigned) [IV-563]
5.30 to 6.30
C[C@@H]1C[C@@H](c2cn[nH]c2)CN(c2ccnc(-c3cnc4cnc(C(F)(F)F)cn34)n2)C1
> 6.30
CC(=O)N1CCN(c2ccnc(-c3cnc4cnc(C(=O)O)cn34)n2)CC1
< 5.30

Name the reported pIC50 value associated with the compound OC1CCN(c2ccnc(-c3cnc4cnc(C(F)F)cn34)n2)C1 (stereo not drawn)
< 5.30

Now consider FC(F)c1cn2c(-c3nccc(N4CCCC(c5cscn5)C4)n3)cnc2cn1 (stereo not drawn) .
< 5.30

Same for `C[C@H]1C[C@@H](c2cn[nH]c2)CN(c2ccnc(-c3cnc4cnc(C(F)(F)F)cn34)n2)C1`
> 6.30

Also `CS(=O)(=O)NCc1cccc(-c2ccnc(-c3cnc4cnc(C(F)F)cn34)n2)c1` ?
< 5.30

Would you kindly repeat that for `FC(F)c1cn2c(-c3nccc(N4CCC5(CCNCC5)C4)n3)cnc2cn1` ?
< 5.30

----------
# reported pKi; entries follow
- subjectOfTest: GCN2 kinase (Homo sapiens, UniProt Q9P2K8)
- Sequence (Q9P2K8 whole entry): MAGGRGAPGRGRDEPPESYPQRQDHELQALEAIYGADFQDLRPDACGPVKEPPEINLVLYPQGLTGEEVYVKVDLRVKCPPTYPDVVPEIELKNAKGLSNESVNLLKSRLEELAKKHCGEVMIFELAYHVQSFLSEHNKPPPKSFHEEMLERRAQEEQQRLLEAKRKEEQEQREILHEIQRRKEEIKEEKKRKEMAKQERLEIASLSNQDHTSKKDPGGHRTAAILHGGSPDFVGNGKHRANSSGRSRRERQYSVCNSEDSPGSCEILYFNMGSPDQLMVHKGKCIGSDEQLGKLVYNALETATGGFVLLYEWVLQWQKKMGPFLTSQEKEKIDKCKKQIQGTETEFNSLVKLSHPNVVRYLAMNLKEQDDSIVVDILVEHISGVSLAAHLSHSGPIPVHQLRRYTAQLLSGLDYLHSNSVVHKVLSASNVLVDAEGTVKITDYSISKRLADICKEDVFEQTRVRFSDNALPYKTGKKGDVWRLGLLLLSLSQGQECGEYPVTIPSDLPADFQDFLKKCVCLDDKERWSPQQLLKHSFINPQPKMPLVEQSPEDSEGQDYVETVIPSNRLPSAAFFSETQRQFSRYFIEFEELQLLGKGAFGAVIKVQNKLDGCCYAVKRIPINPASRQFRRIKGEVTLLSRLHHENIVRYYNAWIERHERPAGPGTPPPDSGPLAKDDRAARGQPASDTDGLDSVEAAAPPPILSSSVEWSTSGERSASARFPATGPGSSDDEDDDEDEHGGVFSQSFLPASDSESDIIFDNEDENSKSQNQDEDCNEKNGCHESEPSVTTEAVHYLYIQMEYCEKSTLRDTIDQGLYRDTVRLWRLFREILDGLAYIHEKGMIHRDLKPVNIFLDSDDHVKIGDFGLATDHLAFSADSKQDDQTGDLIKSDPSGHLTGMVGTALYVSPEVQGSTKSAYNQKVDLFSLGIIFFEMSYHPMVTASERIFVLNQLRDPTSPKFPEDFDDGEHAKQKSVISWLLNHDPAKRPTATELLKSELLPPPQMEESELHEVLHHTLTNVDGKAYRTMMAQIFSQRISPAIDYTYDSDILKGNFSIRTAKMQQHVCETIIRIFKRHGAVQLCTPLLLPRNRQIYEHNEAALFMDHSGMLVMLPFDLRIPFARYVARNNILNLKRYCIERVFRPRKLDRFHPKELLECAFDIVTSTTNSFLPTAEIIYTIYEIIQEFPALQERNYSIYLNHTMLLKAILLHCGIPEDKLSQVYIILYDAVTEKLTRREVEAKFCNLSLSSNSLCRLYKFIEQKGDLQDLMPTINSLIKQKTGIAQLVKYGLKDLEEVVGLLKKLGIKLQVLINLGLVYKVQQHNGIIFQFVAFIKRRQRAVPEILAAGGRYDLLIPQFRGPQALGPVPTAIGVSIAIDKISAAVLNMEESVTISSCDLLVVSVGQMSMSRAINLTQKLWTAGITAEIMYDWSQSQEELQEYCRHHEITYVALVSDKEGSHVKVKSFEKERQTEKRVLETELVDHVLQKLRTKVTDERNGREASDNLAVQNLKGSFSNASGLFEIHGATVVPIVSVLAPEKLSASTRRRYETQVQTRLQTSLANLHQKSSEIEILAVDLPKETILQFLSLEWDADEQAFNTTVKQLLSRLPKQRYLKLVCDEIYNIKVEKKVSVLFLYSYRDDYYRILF
- methodDescription: GCN2 enzyme inhibition assay (Transcreener ADP2 fluorescence polarization)
- Format: biochemical
- measurementParameters: Enzyme activity for compounds of Formula IV; Ki(app), 280 μM ATP, 25° C.
pKi: −log10 of the molar value.

Request - read-out pKi | tested on GCN2 kinase (Homo sapiens, UniProt Q9P2K8) | compound FC(F)(F)c1cn2c(-c3nccc(N4CCCC4)n3)cnc2cn1 [IV-428]
6.00 to 7.00

// query: FC(F)(F)c1cn2c(-c3nccc(N4CCCC(c5nnc[nH]5)C4)n3)cnc2cn1 (stereo not shown) [IV-326]
6.00 to 7.00

Consider next the compound OCc1cccc(-c2ccnc(-c3cnc4cnc(C(F)F)cn34)n2)c1 [IV-162] in the same way.
6.00 to 7.00

Now the compound NC(=O)c1cn2c(-c3nccc(N4CCCC(CO)C4)n3)cnc2cn1 (stereo not shown) [IV-242]
7.00 to 8.00

Another compound: CC(NS(C)(=O)=O)C1CN(c2ccnc(-c3cnc4cnc(C(F)F)cn34)n2)CCO1 (stereo not shown) [IV-61]
6.00 to 7.00

Check FC(F)(F)c1cn2c(-c3nccc(-n4ccc(C5CCCNC5)n4)n3)cnc2cn1 (stereo not shown) [IV-634] too.
6.00 to 7.00

What would you report for C[C@@H]1CCCN(c2ccnc(-c3cnc4cnc(C(F)F)cn34)n2)C1 [IV-129] ?
6.00 to 7.00

// query: O=C1NCCN2CCN(c3ccnc(-c4cnc5cnc(C(F)(F)F)cn45)n3)CC12 (stereo not shown) [IV-568]
6.00 to 7.00

----------
- subjectOfTest: intracellular GCN2 (phosphorylation of the GCN2 substrate eIF2α) (Homo sapiens)
- methodDescription: GCN2 cellular inhibition assay (AlphaScreen SureFire P-eIF2α Ser51, borrelidin-treated U2OS cells)
- Type: cell-based
- measurementParameters: compounds of Formula IV; biomarker assay, phosphorylated eIF2α Ser51 in borrelidin-treated U2OS cells
Reported IC50 values are given for each entry in this list.

Cc1n[nH]c(C)c1C1CN(c2ccnc(-c3cnc4cnc(C(F)(F)F)cn34)n2)CC(C)N1 (single isomer, unassigned) [IV-467]
> 5 µM
CN1CCN(c2ccnc(-c3cnc4cnc(C(F)F)cn34)n2)CC12CCNCC2
> 5 µM
OC[C@H]1CCCN(c2ccnc(-c3cnc4cnc(C(F)F)cn34)n2)C1
> 5 µM

Please turn your attention to the following entry.
Could you share which IC50 value was measured for FC(F)c1cn2c(-c3nccc(N4CCC(C5CCOCC5)C4)n3)cnc2cn1 (stereo not shown) ?
> 5 µM

----------
- subjectOfTest: GCN2 kinase (Homo sapiens, UniProt Q9P2K8)
- methodDescription: GCN2 enzyme inhibition assay (Transcreener ADP2 fluorescence polarization)
- Type: biochemical
- measurementParameters: Enzyme activity for compounds of Formula IV; Ki(app), 280 μM ATP, 25° C.
readoutLabel: Ki

N#CCc1cccc(-c2ccnc(-c3cnc4cnc(C(F)F)cn34)n2)c1 [IV-157]
100 to 1000 nM
OCC1CCCCN(c2ccnc(-c3cnc4cnc(C(F)(F)F)cn34)n2)C1 (stereo not shown) [IV-445]
100 to 1000 nM

What value of measured Ki is listed for C[C@@H]1CN(c2ccnc(-c3cnc4cnc(C(F)(F)F)cn34)n2)C[C@H](c2cncn2C)N1 (racemic) [IV-672] ?
100 to 1000 nM

Also CC1CCCN(c2ccnc(-c3cnc4cnc(C(F)(F)F)cn34)n2)C1 (stereo not shown) [IV-424] ?
100 to 1000 nM

Next record, please: CC1CN(c2ccnc(-c3cnc4cnc(Br)cn34)n2)C(C)C(c2c[nH]cn2)N1 (stereo not shown) [IV-373]
< 10 nM

// same read-out, input: FC(F)(F)c1cn2c(-c3nccc(N4CCCC(C5CCOC5)C4)n3)cnc2cn1 (single isomer, unassigned) [IV-544]
100 to 1000 nM

Same again, this time with CC(=O)N1CCN(c2ccnc(-c3cnc4cnc(C(F)(F)F)cn34)n2)CC1 [IV-24]
100 to 1000 nM

Record: Fc1n[nH]cc1C1CCN(c2ccnc(-c3cnc4cnc(C(F)(F)F)cn34)n2)C1 (single isomer, unassigned) [IV-563]
< 10 nM

Item: CC1CC(C(N)=O)CN(c2ccnc(-c3cnc4cnc(C(F)F)cn34)n2)C1 (mixture of isomers) [IV-107]
10 to 100 nM

Next up: O=C1OCC2CN(c3ccnc(-c4cnc5cnc(C(F)F)cn45)n3)CCN12 (stereo not shown) [IV-100]
100 to 1000 nM

Check OC[C@H]1CCCCN1c1ccnc(-c2cnc3cnc(C(F)F)cn23)n1 [IV-136] too.
100 to 1000 nM

Then this compound: CC1CN(c2nccc(-c3cnc4cnc(C(F)(F)F)cn34)n2)CC(c2cn[nH]c2)O1 (single isomer, unassigned) [IV-199]
10 to 100 nM

And then Clc1cn2c(-c3nccc(N4CCNC(c5cn[nH]c5)C4)n3)cnc2cn1 (single isomer, unassigned) [IV-237] , what is it?
100 to 1000 nM

Same for O=C(Nc1cccnc1)[C@@H]1CCCN(c2ccnc(-c3cnc4cnc(C(F)(F)F)cn34)n2)C1 [IV-738]
> 1000 nM

Repeat for the following compound: CC1C(c2cn[nH]c2)NCCN1c1ccnc(-c2cnc3cnc(Cl)cn23)n1 (single isomer, unassigned) [IV-230]
< 10 nM

Try the compound FC(F)c1cn2c(-c3nccc(N4CCCC(c5cn[nH]c5)C4)n3)cnc2cn1 (stereo not shown) [IV-58]
10 to 100 nM

----------
- subjectOfTest: intracellular GCN2 (phosphorylation of the GCN2 substrate eIF2α) (Homo sapiens, UniProt Q9P2K8)
- methodDescription: GCN2 cellular inhibition assay (AlphaScreen SureFire P-eIF2α Ser51, borrelidin-treated U2OS cells)
- Assay type: cell-based
- measurementParameters: compounds of Formula II; biomarker assay, phosphorylated eIF2α Ser51 in borrelidin-treated U2OS cells
readoutLabel: IC50

NS(=O)(=O)N1CCCC2(CN(c3cc(-c4cnc5ccc(C(F)F)nn45)ncn3)C2)C1 [II-284]
> 5000 nM
CS(=O)(=O)NCC1CN(c2cc(-c3cnc4ccc(C(F)F)nn34)ncn2)CC(C2CC2)O1 (centres unmarked) [II-443]
< 500 nM
CS(=O)(=O)NCC1CCCN(c2cc(-c3cnc4ccc(C(F)F)nn34)c(F)cn2)C1 (centres unmarked) [II-729]
500 to 5000 nM
CS(=O)(=O)NC1CCN(c2cc(-c3cnc4ccc(C(F)F)nn34)ncn2)C1 (centres unmarked) [II-199]
> 5000 nM
CS(=O)(=O)NCC1CN(c2cc(-c3cnc4ccc(C(F)F)nn34)ncn2)CCC1(F)F (single isomer, unassigned) [II-2]
500 to 5000 nM

Quick one: IC50 for O=S1(=O)CCN(c2cc(-c3cnc4ccc(C(F)F)nn34)ccn2)CC1 [II-77] ?
> 5000 nM

# iterate: CC1C(CNS(C)(=O)=O)CC(F)(F)CN1c1cc(-c2cnc3ccc(C(F)F)nn23)ncn1 (centres unmarked) [II-329]
< 500 nM

Let us now turn to CS(=N)(=O)CC1CCCN(c2cc(-c3cnc4ccc(C(F)F)nn34)ncn2)C1 (centres unmarked) [II-370]
500 to 5000 nM

Query CS(=O)(=O)N1CC2(CCCN(c3cc(-c4cnc5ccc(C(F)F)nn45)ccn3)C2)C1 [II-136] next
< 500 nM

What about this molecule? CS(=O)(=O)NCC1CCCN(c2cc(-c3cnc4ccc(C(F)F)nn34)ccc2C#N)C1 (centres unmarked) [II-82]
500 to 5000 nM

What would you report for CC1CCC(CNS(C)(=O)=O)C(C)N1c1cc(-c2cnc3ccc(C(F)F)nn23)ncn1 (centres unmarked) [II-268] ?
< 500 nM
